procedureText: chemical genetic growth profiling, strain panel (AID 1159580);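 further: tested at 20 µM; growth read once vehicle control cultures reached saturation at 30 °C; 1 = growth at the plate median or of vehicle wells; lower values mean less growth of the strain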
conditions: S. cerevisiae deletion strains, growth OD, locus YDL132W, strain cdc53, hits give low values
Hit rate of the full screen: of about 5,500 compounds, about 2,000 (36%) were called active. Roughly 18% stayed inconclusive and do not appear here. The list shows a part of the results.
# reported normalized growth; entries follow
valueKind: normalized growth

[[record]]
compound = "CC1(C)c2ccccc2N(CCC(N)=O)C12C=Cc1c(ccc3ccccc13)O2 (stereo unspecified)"
valuekind = "normalized growth"
number = 0.964

[[record]]
compound = "O=[N+]([O-])c1ccc(-c2csc(Nc3ccncc3)n2)cc1"
valuekind = "normalized growth"
number = 0.982

[[record]]
compound = "O=C1/C(=C/c2ccc(C(F)(F)F)cc2)COc2ccccc21"
valuekind = "normalized growth"
number = 0.934

[[record]]
compound = "O=C(Nc1ccc(F)c(Cl)c1)c1ccccc1O"
valuekind = "normalized growth"
number = 0.879

[[record]]
compound = "S=C(Nc1cc(Cl)c(Cl)cc1Cl)Nc1ccccc1Br"
valuekind = "normalized growth"
number = 0.96

[[record]]
compound = "Oc1ccc(N=Nc2ccccn2)c(O)c1"
valuekind = "normalized growth"
number = 0.0971


====

procedureText: chemical genetic growth profiling, strain panel (AID 1159580);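 further: tested at 20 µM; growth read once vehicle control cultures reached saturation at 30 °C; 1 = growth at the plate median or of vehicle wells; lower values mean less growth of the strain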
conditions: S. cerevisiae deletion strains, growth OD, locus YLR384C, strain iki3
The campaign covered roughly 5,500 compounds. About 2,000 (36%) were called active. Another 18% or so got no clear call; they are omitted. No stated cut-off is given here; in the data, active means normalized growth mostly below about 0.91 (no sharp cut-off); inconclusive means no clear call, values can overlap the other calls; inactive means mostly above about 0.92. Some of the results follow.
Possible outcomes: active, inactive

[[record]]
molecule = "CN(C(=O)CN(CCO)CC(=O)N(C)C(C)(C)Cc1ccccc1)C(C)(C)Cc1ccccc1"
labelvalue = "inactive"

[[record]]
molecule = "C=C1[C@H]2CC[C@@]3(C)[C@H](c4ccoc4)OC(=O)C[C@]13O[C@H]1C[C@H](O)C(C)(C)[C@H](CC(=O)OC)[C@]12C"
labelvalue = "inactive"

[[record]]
molecule = "O=c1cc(-c2ccccc2)oc2c(O)c(O)ccc12"
labelvalue = "inactive"

[[record]]
molecule = "CCN(CC)CCOC(=O)C(c1ccccc1)c1ccccc1"
labelvalue = "inactive"

[[record]]
molecule = "COc1cc(S(C)=O)ccc1-c1nc2ncccc2[nH]1 (stereo not given)"
labelvalue = "inactive"

[[record]]
molecule = "C[C@@H]1CC2C3CCC4=CC(=O)C=C[C@]4(C)[C@@]3(F)[C@@H](O)C[C@]2(C)[C@H]1C(=O)CO (stereo not given in full)"
labelvalue = "inactive"

[[record]]
molecule = "O=c1cc(-c2ccc(O)cc2)oc2cc(O)ccc12"
labelvalue = "inactive"

[[record]]
molecule = "CCCC(C(=O)OCCN(CC)CC)(c1ccccc1)c1ccccc1"
labelvalue = "inactive"

[[record]]
molecule = "CC(CCC(=O)O)[C@H]1CCC2C3C[C@H](O)[C@@H]4C[C@H](O)CC[C@]4(C)C3CC[C@@]21C (stereo not given in full)"
labelvalue = "inactive"

[[record]]
molecule = "CC(=O)Nc1ccccc1"
labelvalue = "inactive"

[[record]]
molecule = "CC(CN(C)C)CN1c2ccccc2Sc2ccccc21 (stereo not given)"
labelvalue = "inactive"

[[record]]
molecule = "C=C1C2CCC3(C)C(c4ccoc4)OC(=O)CC13OC1CC(OC(C)=O)C(C)(C)C(CC(=O)OC)C12C (stereo not given)"
labelvalue = "inactive"

[[record]]
molecule = "CC(CCC(=O)O)[C@H]1CCC2C3C(C[C@H](O)[C@@]21C)[C@@]1(C)CC[C@@H](O)C[C@H]1C[C@H]3O (stereo not given in full)"
labelvalue = "inactive"

[[record]]
molecule = "CCN(CC)C(C)CN1c2ccccc2Sc2ccccc21 (stereo not given)"
labelvalue = "inactive"

[[record]]
molecule = "C[C@@H]1CC2C3C[C@H](F)C4=CC(=O)C=C[C@]4(C)[C@@]3(F)[C@@H](O)C[C@]2(C)[C@@]1(O)C(=O)COC(=O)C(C)(C)C (stereo not given in full)"
labelvalue = "inactive"

[[record]]
molecule = "CC(=O)N=c1sc(S(N)(=O)=O)nn1C"
labelvalue = "inactive"

[[record]]
molecule = "CC1(C)C(O)CC(O)C2(C)C1CC(O)C1(C)C2CCC2(C)C(c3ccoc3)OC(=O)C3OC321 (stereo not given)"
labelvalue = "inactive"

[[record]]
molecule = "CC(=O)Nc1nnc(S(N)(=O)=O)s1"
labelvalue = "inactive"

[[record]]
molecule = "C=C1C2CC[C@@]3(C)[C@H](c4ccoc4)OC(=O)C[C@]13O[C@H]1CC(O)C(C)(C)C(CC(=O)OC)[C@@]21C (stereo not given in full)"
labelvalue = "inactive"

[[record]]
molecule = "C=C[C@H]1CN2CC[C@H]1C[C@@H]2[C@H](O)c1ccnc2ccccc12"
labelvalue = "inactive"

[[record]]
molecule = "CN(CCC(N)CC(=O)N[C@H]1C=CC(n2ccc(N)nc2=O)O[C@@H]1C(=O)O)C(=N)N (stereo not given in full)"
labelvalue = "active"

[[record]]
molecule = "C[C@H](CCC(=O)O)[C@H]1CCC2C3C(CC[C@@]21C)[C@@]1(C)CC[C@@H](O)C[C@H]1C[C@@H]3O (stereo not given in full)"
labelvalue = "inactive"

[[record]]
molecule = "CC(=O)OCC(=O)[C@@]1(O)[C@H](OC(C)=O)CC2C3CCC4=CC(=O)C=C[C@]4(C)[C@@]3(F)[C@@H](O)C[C@@]21C (stereo not given in full)"
labelvalue = "inactive"

[[record]]
molecule = "NC(N)=O"
labelvalue = "inactive"

[[record]]
molecule = "CC(CCC(=O)O)[C@H]1CCC2C3CC[C@@H]4C[C@H](O)CC[C@]4(C)C3C[C@H](O)[C@@]21C (stereo not given in full)"
labelvalue = "inactive"

[[record]]
molecule = "COC(=O)CCC(C)C1CCC2C3CC[C@@H]4C[C@H](O)CC[C@]4(C)C3C[C@H](O)[C@]12C (stereo not given in full)"
labelvalue = "inactive"

[[record]]
molecule = "CN(C)CCC(c1ccc(Br)cc1)c1ccccn1 (stereo not given)"
labelvalue = "inactive"

[[record]]
molecule = "CNCCCN1c2ccccc2CCc2ccccc21"
labelvalue = "inactive"

[[record]]
molecule = "C[C@@H]1O[C@@H](O[C@H]2C[C@@H](O)[C@]3(CO)C4C(CC[C@]3(O)C2)[C@@]2(O)CC[C@H](C3=CC(=O)OC3)[C@@]2(C)C[C@H]4O)[C@H](O)[C@H](O)[C@H]1O (stereo not given in full)"
labelvalue = "inactive"

[[record]]
molecule = "Cc1cc(O)c(C=O)c2c1C(=O)Oc1c(COC(=O)/C=C/C(=O)O)c(O)c(C(=O)O)c(C)c1O2"
labelvalue = "inactive"

